From: PubChem BioAssay (EPA / NIEHS)

Experiment: CCTE_Simmons_CellTiterGLO_HEK293T: Viability Assessment in CCTE's Assays for Thyroperoxidase (TPO) Inhibition, Simmons Lab (AID 2283665)
Records with an inconclusive call do not appear. Activity calls are given as the source filed them. How the source made its calls: active means hit-call score of the fitted dose curve at least 0.9, where 1 is the maximum; inconclusive means response in the unintended direction; inactive means score below 0.9.
Choose the fitting class; nothing outside active, inactive is accepted.

// param item: COC(=O)C=C(C)OP(=O)(OC)OC ; yields the recorded call inactive

// param item: CCCCNC(=O)n1c(NC(=O)OC)nc2ccccc21 ; yields the recorded call inactive

// param item: COP(=S)(OC)Oc1nc(Cl)c(Cl)cc1Cl ; yields the recorded call active

// param item: CCCC1COC(Cn2cncn2)(c2ccc(Cl)cc2Cl)O1 (centres undefined) ; yields the recorded call active
